Attribution: paper doi:10.1101/2023.04.18.537371v1

System: CYP3A
Assay: CYP450 inhibition assay
Type: in vitro ADME
Conditions: human, pooled human liver microsomes
pIC50: −log10 of the molar value. Peptide text beside a SMILES is read from it.
readout: pIC50

Prompt line: Lab note: need pIC50 with CYP3A for entry CC(C)[C@@H](NC(=O)[C@H](N)Cc1ccc(O)cc1)C(=O)N[C@H](CC(=O)O)C(=O)N[C@H](CCCCN)C(=O)N[C@H](CCCNC(=N)N)C(=O)O [FC-12738, (D-Tyr)-(D-Val)-(D-Asp)-(D-Lys)-(D-Arg)] (HELM PEPTIDE1{[dY].[dV].[dD].[dK].[dR]}$$$$V2.0) , please look it up.
Response line: < 4.00

====

Assay: Plasma stability
Type: in vitro ADME, CD-1 mouse
Conditions: CD-1, mouse, plasma
Peptide text beside a SMILES is read from it.
readout: remaining at 1 h, 2 μM (%)
Record the value in %, omitting the unit from your answer.

Prompt line: What value of remaining at 1 h, 2 μM has been reported for the following compound? CC(C)[C@@H](NC(=O)[C@H](N)Cc1ccc(O)cc1)C(=O)N[C@H](CC(=O)O)C(=O)N[C@H](CCCCN)C(=O)N[C@H](CCCNC(=N)N)C(=O)O [FC-12738, (D-Tyr)-(D-Val)-(D-Asp)-(D-Lys)-(D-Arg)] (HELM PEPTIDE1{[dY].[dV].[dD].[dK].[dR]}$$$$V2.0)
Response line: 111

====

Assay: Tissue distribution in SD rats after single subcutaneous injection
Assay type: in vivo, SD rat
Settings: male, SD, rat, plasma, sc, 10 mg/kg
Peptide text beside a SMILES is read from it.
readout: level at 8 h (ng/mL)
// note: answer is a bare numeric in ng/mL

Prompt line: Fill in the blank: the reported level at 8 h of CC(C)[C@@H](NC(=O)[C@H](N)Cc1ccc(O)cc1)C(=O)N[C@H](CC(=O)O)C(=O)N[C@H](CCCCN)C(=O)N[C@H](CCCNC(=N)N)C(=O)O [FC-12738, (D-Tyr)-(D-Val)-(D-Asp)-(D-Lys)-(D-Arg)] (HELM PEPTIDE1{[dY].[dV].[dD].[dK].[dR]}$$$$V2.0) is ____.
Response line: 5.04

====

Experiment: Single-dose pharmacokinetics in beagle dogs
Type: in vivo, beagle dog
Details: male, beagle, dog, plasma, iv, 1 mg/kg
Peptide text beside a SMILES is read from it.
readout: Vd

Prompt line: Find the recorded Vd belonging to CC(C)[C@@H](NC(=O)[C@H](N)Cc1ccc(O)cc1)C(=O)N[C@H](CC(=O)O)C(=O)N[C@H](CCCCN)C(=O)N[C@H](CCCNC(=N)N)C(=O)O [FC-12738, (D-Tyr)-(D-Val)-(D-Asp)-(D-Lys)-(D-Arg)] (HELM PEPTIDE1{[dY].[dV].[dD].[dK].[dR]}$$$$V2.0) and report it.
Response line: 0.302 L/kg

====

Experiment: Excretion study in SD rats following single subcutaneous administration
Type: in vivo, SD rat
Conditions: male, Sprague-Dawley, rat, urine, sc, 10 mg/kg
Peptide text beside a SMILES is read from it.
readout: dose excreted at 48 h

Prompt line: dose excreted at 48 h lookup needed for CC(C)[C@@H](NC(=O)[C@H](N)Cc1ccc(O)cc1)C(=O)N[C@H](CC(=O)O)C(=O)N[C@H](CCCCN)C(=O)N[C@H](CCCNC(=N)N)C(=O)O [FC-12738, (D-Tyr)-(D-Val)-(D-Asp)-(D-Lys)-(D-Arg)] (HELM PEPTIDE1{[dY].[dV].[dD].[dK].[dR]}$$$$V2.0) , thanks.
Response line: 86.1%
